System: Mycobacterium tuberculosis
experimentNotes: microbe, parasite or virus in culture
protocolConditions: 240 h
readoutType: MIC

[[record]]
compound = "CC1COc2c(N3CCN(C)CC3)c(F)cc3c(=O)c(C(=O)O)cn1c23 (centres undefined)"
readouttype = "MIC"
observedvalue = "0.1 µg/mL"

[[record]]
compound = "O=C(O)c1ccc(F)c(F)c1O"
readouttype = "MIC"
observedvalue = "1.5 µg/mL"

[[record]]
compound = "O=C(O)c1c(O)c(F)c(F)c(F)c1F"
readouttype = "MIC"
observedvalue = "0.7 µg/mL"

[[record]]
compound = "O=C(O)c1cc(F)c(F)cc1O"
readouttype = "MIC"
observedvalue = "0.7 µg/mL"

